Source: ChEMBL document CHEMBL1157539

- Test system: Plasmodium falciparum
- protocol-summary: GSK_TCMDC: Inhibition of Plasmodium falciparum Dd2 in whole red blood cells, using parasite LDH activity as an index of growth. Test compounds present at 2uM
- Format: functional
measured-parameter: Inhibition (%)
Respond numerically; units are % and should not be typed.

{"molecule": "CN1CCC[C@H]1COc1ccc(CN2CC[C@H](NC(=O)c3ccc(Cl)c(Cl)c3)C2)cc1Cl.O=C(O)C(F)(F)F", "value-units": "%", "Inhibition": 44}
{"molecule": "Cc1ccc(/C=C2/SC(=Nc3ccccc3)NC2=O)c(C)c1", "value-units": "%", "Inhibition": 90}
{"molecule": "O=C(/C=C/c1ccc(Cl)cc1)NCCCCCN1CCCC(C(=O)Nc2ccc(Cl)cc2)C1 (centres undefined)", "value-units": "%", "Inhibition": 6}

// moving on: another record for Inhibition
`Fc1ccc2[nH]c(-c3ccc(-c4ccc(CN5CCCCC5)cc4)cc3)nc2c1.O=C(O)C(F)(F)F` tested on Plasmodium falciparum gave Inhibition: 100
